Exercise: state measured protein stability index for each of the variants provided.
B1: ATL3 (parent)
chain: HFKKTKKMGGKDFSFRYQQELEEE

- Variants of: B1
- Test Description: protein stability index of a GFP-peptide fusion (GPS, HEK-293T) (PSI 1-6); higher = more stable;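 further: lentivirally expressed fusions sorted by FACS into six bins by GFP to DsRed ratio, PSI derived from sequencing read proportions per bin multiplied by bin number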
- Recorded Conditions: c terminus: a fixed tail appended

These solved cases illustrate the format of a correct answer.
>>> df
             sequence_input  result
0  HFKKTKKMGGKDFSFRYQQPLEEE    3.22
1  HFKCTKKMGGKDFSFRYQQELEEE    2.55
2  HFKKTKKMGGKDFSFRYDQELEEE    4.65
3  IFKKTKKMGGKDFSFRYQQELEEE    1.36
4  HFKKTKKMGIKDFSFRYQQELEEE    1.68

Provide protein stability index values for the following items, in order.
1. HFKKTKKMGGKDFSFRYNQELEEE
2. HFKKTKKMGGKDFSFRYQQELEET

[A]
1. 2.54
2. 2.39

Provide protein stability index values for the following items, in order.
1. HFKKTKKMGGKDFSFRVQQELEEE
2. HFTKTKKMGGKDFSFRYQQELEEE

[A]
2.03
1.04

The reported measurements were obtained from the supplement of paper PMC10567573.
